TEST DETAILS: Cytotoxicity against human HEK293T cells assessed as inhibition of cell growth incubated for 24 hrs by resazurin dye based analysis
Type: toxicity, HEK-293T
Could you please report measured IC50 at 24 h for the items listed next?
One number for each entry, in µg/mL.

Example entries begin here.
>  <SMILES>
CCCCCCC(=O)N[C@@H](CCN)C(=O)N[C@H](C(=O)N[C@@H](CCN)C(=O)N[C@H](Cc1ccccc1)C(=O)N[C@@H](CC(C)C)C(=O)N[C@@H](CCN)C(=O)N[C@@H](C(=O)N[C@@H](CC(C)C)C(=O)N[C@@H](Cc1ccc(O)cc1)C(N)=O)C(C)C)[C@@H](C)CC

>  <IC50 at 24 h, µg/mL>
32.5

$$$$
>  <SMILES>
CC[C@H](C)[C@@H]1NC(=O)[C@H](CCN)NC(=O)C[C@@H](C(C)C)OC(=O)[C@H]([C@@H](C)O)NC(=O)[C@H](CC(C)C)NC(=O)[C@@H](C(C)C)NC(=O)[C@H](CCN)NC(=O)[C@H](CC(C)C)NC(=O)[C@@H](Cc2ccccc2)NC(=O)[C@H](CCN)NC1=O

>  <IC50 at 24 h, µg/mL>
29.2

$$$$

Please give measured IC50 at 24 h of the following entry: `CCCCCCCC(=O)N[C@@H](CCN)C(=O)N[C@H](C(=O)N[C@@H](CCN)C(=O)N[C@H](Cc1ccccc1)C(=O)N[C@@H](CC(C)C)C(=O)N[C@@H](CCN)C(=O)N[C@@H](C(=O)N[C@@H](CC(C)C)C(=O)N[C@@H](Cc1ccc(O)cc1)C(N)=O)C(C)C)[C@@H](C)CC`
24.2
